- System: rodent lifetime carcinogenesis bioassay, tumor incidence TD50
- experimentDescription: carcinogenic potency in animals, long-term in vivo studies, CPDB compilation (AID 1745844)
- testConditions: rat; strain F344/DuCrj; males; in drinking water; site: esophagus; lesion: squamous-cell carcinoma; dosed 50 weeks; study length 50 weeks
parameter: TD50

// sample "CCCCN(N=O)C(N)=O" , its TD50 was 17 mg/kg/day

* * *

- System: rodent lifetime carcinogenesis bioassay, tumor incidence TD50
- experimentDescription: carcinogenic potency in animals, long-term in vivo studies, CPDB compilation (AID 1745844)
- testConditions: mouse; strain C3Hf/Dp; males; in drinking water; site: liver; lesion: angioma; dosed 60 weeks; study length 105 weeks
Calls of active or inactive are those of the source. How the calls were made is not given here.
parameter: TD50

The molecule "C1N2CN3CN1CN(C2)C3" showed TD50 equal to 32300 mg/kg/day (inactive)

* * *

- Tested on: rodent lifetime carcinogenesis bioassay, tumor incidence TD50
- experimentDescription: carcinogenic potency in animals, long-term in vivo studies, CPDB compilation (AID 1745844)
- testConditions: mouse; strain B6C3F1; males; by gavage; site: lung; lesion: alveolar/bronchiolar adenoma + alveolar/bronchiolar carcinoma; dosed 78 weeks; study length 91 weeks
parameter: TD50 (mg/kg/day)
Write it as a number; the unit mg/kg/day goes unstated.

GET /value?item= "C=Cc1ccccc1" &field=TD50 returns 360

* * *

- System: rodent lifetime carcinogenesis bioassay, tumor incidence TD50
- experimentDescription: carcinogenic potency in animals, long-term in vivo studies, CPDB compilation (AID 1745844)
- testConditions: rat; strain Fischer 344; males; in feed; site: liver; lesion: hepatocellular adenoma; dosed 103 weeks; study length 104 weeks
parameter: TD50

# TD50 measured on rodent lifetime carcinogenesis bioassay, tumor incidence TD50 for item "Nc1c(Br)cc(Br)c2c1C(=O)c1ccccc1C2=O" = 71.4 mg/kg/day

* * *

- System: rodent lifetime carcinogenesis bioassay, tumor incidence TD50
- experimentDescription: carcinogenic potency in animals, long-term in vivo studies, CPDB compilation (AID 1745844)
- testConditions: rat; strain Fischer 344; males; by gavage; site: nasal cavity; lesion: several types; types named in the paper; dosed 30 weeks; study length 102 weeks
parameter: TD50

Readout TD50 for "CCCCCCCCCCN(C)N=O" , test system rodent lifetime carcinogenesis bioassay, tumor incidence TD50, was 46.6 mg/kg/day

* * *

- Tested on: rodent lifetime carcinogenesis bioassay, tumor incidence TD50
- experimentDescription: carcinogenic potency in animals, long-term in vivo studies, CPDB compilation (AID 1745844)
- testConditions: rat; strain Fischer 344; males; in feed; site: rectum; lesion: polypoid adenoma; dosed 39 weeks; study length 66 weeks
parameter: TD50 (mg/kg/day)
Write down the numeric answer in mg/kg/day and omit the unit.

Kindly note: rodent lifetime carcinogenesis bioassay, tumor incidence TD50, "Nc1c(Br)cc(Br)c2c1C(=O)c1ccccc1C2=O" , TD50 value reported: 297

* * *

- System: rodent lifetime carcinogenesis bioassay, tumor incidence TD50
- experimentDescription: carcinogenic potency in animals, long-term in vivo studies, CPDB compilation (AID 1745844)
- testConditions: mouse; strain B6C3F1; females; in feed; site: liver; lesion: hepatocellular adenoma; dosed 105 weeks; study length 105 weeks
parameter: TD50

Known value: rodent lifetime carcinogenesis bioassay, tumor incidence TD50 TD50 of the compound "Brc1cc(Br)c(-c2cc(Br)c(Br)cc2Br)cc1Br" equals 0.367 mg/kg/day

* * *

- System: rodent lifetime carcinogenesis bioassay, tumor incidence TD50
- experimentDescription: carcinogenic potency in animals, long-term in vivo studies, CPDB compilation (AID 1745844)
- testConditions: mouse; strain A; males; by gavage; site: several sites; sites named in the paper; lesion: carcinoma; dosed 79 weeks; study length 79 weeks
parameter: TD50

Quick note, TD50 for "NNC(=O)c1ccncc1" landed at 219 mg/kg/day

* * *

- Tested on: rodent lifetime carcinogenesis bioassay, tumor incidence TD50
- experimentDescription: carcinogenic potency in animals, long-term in vivo studies, CPDB compilation (AID 1745844)
- testConditions: mouse; strain IF x C57; females; in feed; site: urinary bladder; lesion: carcinoma; dosed 92 weeks; study length 92 weeks
parameter: TD50

Given item "CCS(=O)(=O)c1ccc(S(N)(=O)=O)c2ccccc12" , the value recorded as its TD50 is 15.3 mg/kg/day

* * *

- Tested on: rodent lifetime carcinogenesis bioassay, tumor incidence TD50
- experimentDescription: carcinogenic potency in animals, long-term in vivo studies, CPDB compilation (AID 1745844)
- testConditions: rat; strain Osborne-Mendel; both sexes; in feed; site: any site (literature study); lesion: several types; types named in the paper; dosed 104 weeks; study length 104 weeks
Activity calls are given as the source filed them. The rule behind the calls is not given here.
A correct response names exactly one class from active, inactive

1) O=[As](O)(O)O	inactive
2) ClC1=C(Cl)[C@]2(Cl)[C@H]3[C@H]([C@@H]4C=C[C@H]3C4)[C@@]1(Cl)C2(Cl)Cl	active
3) CCN(Cc1cccc(S(=O)(=O)O)c1)c1ccc(C(=C2C=CC(=[N+](CC)Cc3cccc(S(=O)(=O)O)c3)C=C2)c2ccccc2S(=O)(=O)[O-])cc1	inactive
4) O=[As]O	inactive
5) ClC1=C(Cl)[C@]2(Cl)[C@@H]3[C@@H]4C[C@@H]([C@H]5O[C@@H]45)[C@@H]3[C@@]1(Cl)C2(Cl)Cl	active

Hi, do you know how O=C(O)C1=NN(c2ccc(S(=O)(=O)O)cc2)C(=O)C1N=Nc1ccc(S(=O)(=O)O)cc1 (configuration not stated) came out in this test? inactive

Could you check what this test reported for "Cc1cc(C)c(S(=O)(=O)O)cc1N=Nc1cc(S(=O)(=O)O)c2ccccc2c1O" ? inactive

* * *

- Tested on: rodent lifetime carcinogenesis bioassay, tumor incidence TD50
- experimentDescription: carcinogenic potency in animals, long-term in vivo studies, CPDB compilation (AID 1745844)
- testConditions: mouse; strain Swiss; males; i.p.; site: spleen; lesion: several types; types named in the paper; dosed 26 weeks; study length 78 weeks
parameter: TD50

The compound listed as "CN(C)N=Nc1nc[nH]c1C(N)=O" has a reported TD50 of 5.17 mg/kg/day

* * *

- Test system: rodent lifetime carcinogenesis bioassay, tumor incidence TD50
- experimentDescription: carcinogenic potency in animals, long-term in vivo studies, CPDB compilation (AID 1745844)
- testConditions: mouse; strain B6C3F1; males; inhaled; site: brain; lesion: olfactory lobe, glioma malignant; dosed 13 weeks; study length 104 weeks
parameter: TD50

Looking up "C=CC=C" , I found its TD50 recorded as 230 mg/kg/day

* * *

- Tested on: rodent lifetime carcinogenesis bioassay, tumor incidence TD50
- experimentDescription: carcinogenic potency in animals, long-term in vivo studies, CPDB compilation (AID 1745844)
- testConditions: mouse; strain ICR; males; in feed; site: kidney; lesion: adenocarcinoma; dosed 80 weeks; study length 80 weeks
parameter: TD50

According to the records, this compound "[CH3][Hg][Cl]" displays TD50 of 1.48 mg/kg/day

* * *

- Test system: rodent lifetime carcinogenesis bioassay, tumor incidence TD50
- experimentDescription: carcinogenic potency in animals, long-term in vivo studies, CPDB compilation (AID 1745844)
- testConditions: rat; strain Fischer 344; males; in feed; site: any site (literature study); lesion: several types; types named in the paper; dosed 104 weeks; study length 105 weeks
Activity calls are given as the source filed them. How the calls were made is not given here.
Below, each of the molecules is paired with its reported TD50 value.

In the examples that follow, each entry is paired with its recorded TD50.
1) COc1ccc(C)cc1N	98 mg/kg/day
2) OCC(CO)(CBr)CBr	63.8 mg/kg/day

Note: attention shifts to another entry.
Query "O=Nc1ccc(NO)cc1" yields TD50 of 349 mg/kg/day (inactive)

* * *

- Tested on: rodent lifetime carcinogenesis bioassay, tumor incidence TD50
- experimentDescription: carcinogenic potency in animals, long-term in vivo studies, CPDB compilation (AID 1745844)
- testConditions: mouse; strain C57BL/10J; females; in feed; site: lung; lesion: one or several types; types not named; dosed 78 weeks; study length 78 weeks
parameter: TD50 (mg/kg/day)
// units = mg/kg/day; emit number, no label

Reported TD50 for "CC(C)(OCc1ccc(-c2ccc(Cl)cc2)cc1)C(=O)O" was 1010

* * *

- Test system: rodent lifetime carcinogenesis bioassay, tumor incidence TD50
- experimentDescription: carcinogenic potency in animals, long-term in vivo studies, CPDB compilation (AID 1745844)
- testConditions: hamster; strain Syrian Golden; males; in drinking water; site: gall bladder; lesion: papillary adenoma; dosed 102 weeks; study length 102 weeks
parameter: TD50 (mg/kg/day)
Please state the figure in mg/kg/day; there is no need to write the unit.

Sure, the documented TD50 for "CN(N)C=O" is 42.5

* * *

- System: rodent lifetime carcinogenesis bioassay, tumor incidence TD50
- experimentDescription: carcinogenic potency in animals, long-term in vivo studies, CPDB compilation (AID 1745844)
- testConditions: rat; strain Fischer 344; males; inhaled; site: any site (literature study); lesion: several types; types named in the paper; dosed 105 weeks; study length 105 weeks
parameter: TD50 (mg/kg/day)
# number only, unit mg/kg/day dropped from output

// field: TD50; key: "O=[O+][O-]" ; value = 1.2

The reported numbers originate from PubChem BioAssay AID1745844.
